target: DRB1*1302 (Homo sapiens, UniProt P01903+P01911, A100E/A169T/K41T/L162R/M171V/P40S/Q125H/Q178H/Q39Y/Q99D/R42S/S66N/T262R/V115G/W38E/Y61H); construct: Epstein-Barr virus (EBV) transformed homozygous cell lines were used as sources of human HLA Class II molecules; endogenous in cells; host or cells: HO301 / H0301 (EBV-transformed homozygous B cell line); assay: Class II peptide-binding assay DRB1*1302 (DR6w19); settings: known HLA-DR and DQ restricted epitopes, Table 6
Sequence (P01903 26-254, other chains not shown): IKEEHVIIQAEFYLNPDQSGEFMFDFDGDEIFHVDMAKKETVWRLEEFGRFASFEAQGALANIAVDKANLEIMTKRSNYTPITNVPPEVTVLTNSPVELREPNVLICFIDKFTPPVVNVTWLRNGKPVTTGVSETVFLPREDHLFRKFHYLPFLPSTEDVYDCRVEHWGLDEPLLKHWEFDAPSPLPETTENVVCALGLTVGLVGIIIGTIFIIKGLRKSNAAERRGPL
endpointLabel: IC50 (nM)
State the answer as a number, implicitly in nM.

CC[C@H](C)[C@H](NC(=O)[C@H](CC(=O)O)NC(=O)[C@H](CC(C)C)NC(=O)[C@H](Cc1ccc(O)cc1)NC(=O)[C@@H]1CCCN1C(=O)[C@@H](NC(=O)[C@@H](N)CC(=O)O)[C@@H](C)O)C(=O)N[C@H](C(=O)N[C@@H](Cc1ccc(O)cc1)C(=O)N[C@@H](Cc1c[nH]cn1)C(=O)N[C@@H](Cc1ccccc1)C(=O)N[C@H](C(=O)N[C@@H](CCSC)C(=O)N[C@@H](CCC(N)=O)C(=O)N[C@@H](CCCNC(=N)N)C(=O)N[C@@H](CC(C)C)C(=O)N1CCC[C@H]1C(=O)N[C@@H](CC(C)C)C(=O)O)C(C)C)[C@@H](C)O    397
CC[C@H](C)[C@H](NC(=O)[C@H](CO)NC(=O)[C@H](CCC(=O)O)NC(=O)[C@H](CC(C)C)NC(=O)[C@H](C)NC(=O)[C@@H](N)CC(=O)O)C(=O)N[C@@H](CCSC)C(=O)N[C@H](C(=O)N[C@H](C(=O)N[C@@H](CCCCN)C(=O)N[C@@H](CO)C(=O)N[C@H](C(=O)N[C@@H](CO)C(=O)N[C@@H](Cc1ccccc1)C(=O)N[C@@H](CCCNC(=N)N)C(=O)O)C(C)C)[C@@H](C)O)[C@@H](C)O    313

Next molecule, please.
Record CC[C@H](C)[C@H](NC(=O)[C@H](CC(N)=O)NC(=O)[C@@H](N)CCC(N)=O)C(=O)N[C@@H](CC(C)C)C(=O)N[C@@H](CC(C)C)C(=O)N[C@@H](CO)C(=O)N[C@@H](CC(N)=O)C(=O)N[C@@H](C)C(=O)N1CCC[C@H]1C(=O)N[C@@H](CC(C)C)C(=O)NCC(=O)N1CCC[C@H]1C(=O)N[C@@H](CCC(N)=O)C(=O)N[C@@H](Cc1ccccc1)C(=O)N1CCC[C@H]1C(=O)O . Reported IC50: 5.3
